Target: T1, DM Rad9A 94-266 (Homo sapiens, UniProt Q99638 94-266, R150A;R223A)
T1 sequence: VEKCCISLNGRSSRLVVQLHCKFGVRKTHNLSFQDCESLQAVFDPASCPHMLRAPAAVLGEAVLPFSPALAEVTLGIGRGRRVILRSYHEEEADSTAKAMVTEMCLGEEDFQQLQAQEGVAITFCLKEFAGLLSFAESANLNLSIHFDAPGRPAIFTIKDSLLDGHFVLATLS
Assay: EMSA; EMSA: 20 mM Tris-HCl pH 7.6, 80 mM NaCl, 1 mM DTT, 1 mM EDTA, 1.5% glycerol, 200 ng/ml poly dI/dC, 50 ug/ml BSA, 10 nM DNA; 6% native PAGE in 50 mM Tris-borate
Conditions: protein: recombinant; tags: His; label: 5'-fluorescein (6-carboxyfluorescein) on HC40; blunt
attributeMeasured: pKd
Hey, just a heads up that pKd is the negative log base 10 of the concentration in molar.

## Input Report pKd for HC40/HG40 (dsDNA) DNA 1: CCGAGGAATTCGCCTTCTGCTCCATAGCCACTGGTTGTAG DNA 2: CTACAACCAGTGGCTATGGAGCAGAAGGCGAATTCCTCGG please.
## Output 5.11
